Biological target: Human C3 (Complement tech cat #A113c) (human, UniProt P01024 23-1663)
Sequence (P01024 23-1663 limits assumed): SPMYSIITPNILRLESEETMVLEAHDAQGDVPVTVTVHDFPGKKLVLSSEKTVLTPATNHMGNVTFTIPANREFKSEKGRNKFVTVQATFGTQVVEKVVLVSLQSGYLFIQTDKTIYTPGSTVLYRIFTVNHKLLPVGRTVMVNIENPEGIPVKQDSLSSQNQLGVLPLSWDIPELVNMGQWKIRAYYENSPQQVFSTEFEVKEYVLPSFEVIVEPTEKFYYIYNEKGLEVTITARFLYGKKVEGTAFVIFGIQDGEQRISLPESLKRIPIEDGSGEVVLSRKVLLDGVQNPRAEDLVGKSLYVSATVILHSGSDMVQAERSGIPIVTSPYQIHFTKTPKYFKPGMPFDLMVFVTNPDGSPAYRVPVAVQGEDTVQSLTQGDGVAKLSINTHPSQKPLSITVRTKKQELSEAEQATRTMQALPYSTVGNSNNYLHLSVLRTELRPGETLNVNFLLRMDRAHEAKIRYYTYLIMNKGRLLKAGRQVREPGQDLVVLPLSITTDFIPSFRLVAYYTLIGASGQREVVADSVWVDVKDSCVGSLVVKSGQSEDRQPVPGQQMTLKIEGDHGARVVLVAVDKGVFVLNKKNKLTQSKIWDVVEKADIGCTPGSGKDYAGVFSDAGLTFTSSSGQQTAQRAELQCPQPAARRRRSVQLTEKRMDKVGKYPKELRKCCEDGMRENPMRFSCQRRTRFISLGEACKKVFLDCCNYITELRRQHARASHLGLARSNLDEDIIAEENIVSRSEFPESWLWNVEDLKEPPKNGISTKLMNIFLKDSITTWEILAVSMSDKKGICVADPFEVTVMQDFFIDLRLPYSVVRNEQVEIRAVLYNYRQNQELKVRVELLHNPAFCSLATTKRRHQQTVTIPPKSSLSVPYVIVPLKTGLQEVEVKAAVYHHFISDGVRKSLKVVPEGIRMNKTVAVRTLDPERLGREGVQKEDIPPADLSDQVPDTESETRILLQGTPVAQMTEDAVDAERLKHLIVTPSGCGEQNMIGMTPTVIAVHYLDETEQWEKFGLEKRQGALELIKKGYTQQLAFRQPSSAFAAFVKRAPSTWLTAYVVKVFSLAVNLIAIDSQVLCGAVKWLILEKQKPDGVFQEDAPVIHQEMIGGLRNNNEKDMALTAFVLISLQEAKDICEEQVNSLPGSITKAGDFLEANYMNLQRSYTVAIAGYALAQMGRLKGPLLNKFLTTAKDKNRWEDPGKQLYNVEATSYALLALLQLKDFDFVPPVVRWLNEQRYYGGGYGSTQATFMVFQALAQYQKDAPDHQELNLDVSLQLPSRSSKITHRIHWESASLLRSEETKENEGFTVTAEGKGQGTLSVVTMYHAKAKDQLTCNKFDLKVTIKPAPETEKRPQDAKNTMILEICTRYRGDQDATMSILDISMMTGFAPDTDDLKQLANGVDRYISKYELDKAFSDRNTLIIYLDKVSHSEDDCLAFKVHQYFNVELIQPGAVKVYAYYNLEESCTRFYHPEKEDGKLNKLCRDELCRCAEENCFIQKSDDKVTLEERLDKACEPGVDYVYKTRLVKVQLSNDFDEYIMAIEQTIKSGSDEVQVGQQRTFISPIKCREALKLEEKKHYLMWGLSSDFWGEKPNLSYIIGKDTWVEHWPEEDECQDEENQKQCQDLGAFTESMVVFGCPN
Assay: cell-based or functional assay
Positions of bridges follow the written chain, without caps; N, C: chain ends. Non-standard residues stand in square brackets, D forms with d. Sar = CNCC(=O)O
Simple rule here: CP hemolysis IC50 less than 200 nM is condition met, otherwise condition not met.

>>> group_label("Ac-ICVWQDWGEHRCT-NH2 (disulfide 2-12; SMILES CC[C@H](C)[C@H](NC(C)=O)C(=O)N[C@H]1CSSC[C@@H](C(=O)N[C@H](C(N)=O)[C@@H](C)O)NC(=O)[C@H](CCCNC(=N)N)NC(=O)[C@H](Cc2c[nH]cn2)NC(=O)[C@H](CCC(=O)O)NC(=O)CNC(=O)[C@H](Cc2c[nH]c3ccccc23)NC(=O)[C@H](CC(=O)O)NC(=O)[C@H](CCC(N)=O)NC(=O)[C@H](Cc2c[nH]c3ccccc23)NC(=O)[C@H](C(C)C)NC1=O) [Compound A]")
"condition not met"
>>> group_label("Ac-ESSAICIWQDWGEHRCT-NH2 (disulfide 6-16; SMILES CC[C@H](C)[C@H](NC(=O)[C@H](C)NC(=O)[C@H](CO)NC(=O)[C@H](CO)NC(=O)[C@H](CCC(=O)O)NC(C)=O)C(=O)N[C@H]1CSSC[C@@H](C(=O)N[C@H](C(N)=O)[C@@H](C)O)NC(=O)[C@H](CCCNC(=N)N)NC(=O)[C@H](Cc2c[nH]cn2)NC(=O)[C@H](CCC(=O)O)NC(=O)CNC(=O)[C@H](Cc2c[nH]c3ccccc23)NC(=O)[C@H](CC(=O)O)NC(=O)[C@H](CCC(N)=O)NC(=O)[C@H](Cc2c[nH]c3ccccc23)NC(=O)[C@H]([C@@H](C)CC)NC1=O) [Compound 3]")
"condition met"
>>> group_label("Ac-EGSAICIWQDWGEHRC[Sar]E-NH2 (disulfide 6-16; SMILES CC[C@H](C)[C@H](NC(=O)[C@H](C)NC(=O)[C@H](CO)NC(=O)CNC(=O)[C@H](CCC(=O)O)NC(C)=O)C(=O)N[C@H]1CSSC[C@@H](C(=O)N(C)CC(=O)N[C@@H](CCC(=O)O)C(N)=O)NC(=O)[C@H](CCCNC(=N)N)NC(=O)[C@H](Cc2c[nH]cn2)NC(=O)[C@H](CCC(=O)O)NC(=O)CNC(=O)[C@H](Cc2c[nH]c3ccccc23)NC(=O)[C@H](CC(=O)O)NC(=O)[C@H](CCC(N)=O)NC(=O)[C@H](Cc2c[nH]c3ccccc23)NC(=O)[C@H]([C@@H](C)CC)NC1=O) [Compound 28]")
"condition met"
>>> group_label("Ac-ICIWQDWGAHSCT-NH2 (disulfide 2-12; SMILES CC[C@H](C)[C@H](NC(C)=O)C(=O)N[C@H]1CSSC[C@@H](C(=O)N[C@H](C(N)=O)[C@@H](C)O)NC(=O)[C@H](CO)NC(=O)[C@H](Cc2c[nH]cn2)NC(=O)[C@H](C)NC(=O)CNC(=O)[C@H](Cc2c[nH]c3ccccc23)NC(=O)[C@H](CC(=O)O)NC(=O)[C@H](CCC(N)=O)NC(=O)[C@H](Cc2c[nH]c3ccccc23)NC(=O)[C@H]([C@@H](C)CC)NC1=O) [Compound 19]")
"condition met"
>>> group_label("Ac-ICVWQDWGEHRCTEGE-NH2 (disulfide 2-12; SMILES CC[C@H](C)[C@H](NC(C)=O)C(=O)N[C@H]1CSSC[C@@H](C(=O)N[C@H](C(=O)N[C@@H](CCC(=O)O)C(=O)NCC(=O)N[C@@H](CCC(=O)O)C(N)=O)[C@@H](C)O)NC(=O)[C@H](CCCNC(=N)N)NC(=O)[C@H](Cc2c[nH]cn2)NC(=O)[C@H](CCC(=O)O)NC(=O)CNC(=O)[C@H](Cc2c[nH]c3ccccc23)NC(=O)[C@H](CC(=O)O)NC(=O)[C@H](CCC(N)=O)NC(=O)[C@H](Cc2c[nH]c3ccccc23)NC(=O)[C@H](C(C)C)NC1=O) [Compound J]")
"condition not met"
>>> group_label("Ac-ICIWQDWGEHRCTEGE-NH2 (disulfide 2-12; SMILES CC[C@H](C)[C@H](NC(C)=O)C(=O)N[C@H]1CSSC[C@@H](C(=O)N[C@H](C(=O)N[C@@H](CCC(=O)O)C(=O)NCC(=O)N[C@@H](CCC(=O)O)C(N)=O)[C@@H](C)O)NC(=O)[C@H](CCCNC(=N)N)NC(=O)[C@H](Cc2c[nH]cn2)NC(=O)[C@H](CCC(=O)O)NC(=O)CNC(=O)[C@H](Cc2c[nH]c3ccccc23)NC(=O)[C@H](CC(=O)O)NC(=O)[C@H](CCC(N)=O)NC(=O)[C@H](Cc2c[nH]c3ccccc23)NC(=O)[C@H]([C@@H](C)CC)NC1=O, also called Comp No 24) [Compound 24]")
"condition met"
>>> group_label("Ac-ICVWQDWGEHSCT-NH2 (disulfide 2-12; SMILES CC[C@H](C)[C@H](NC(C)=O)C(=O)N[C@H]1CSSC[C@@H](C(=O)N[C@H](C(N)=O)[C@@H](C)O)NC(=O)[C@H](CO)NC(=O)[C@H](Cc2c[nH]cn2)NC(=O)[C@H](CCC(=O)O)NC(=O)CNC(=O)[C@H](Cc2c[nH]c3ccccc23)NC(=O)[C@H](CC(=O)O)NC(=O)[C@H](CCC(N)=O)NC(=O)[C@H](Cc2c[nH]c3ccccc23)NC(=O)[C@H](C(C)C)NC1=O) [Compound F]")
"condition not met"

These entries and their values trace back to patent US11965039B2.
